B1: TPR t1 (parent)
chain: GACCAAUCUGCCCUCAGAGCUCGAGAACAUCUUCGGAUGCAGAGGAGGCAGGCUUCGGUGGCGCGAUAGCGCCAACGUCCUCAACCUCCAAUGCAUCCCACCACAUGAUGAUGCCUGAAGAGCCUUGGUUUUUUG

# Variants of: B1
# ASSAY NOTES: polymerase ribozyme fitness, log enrichment relative to wild type (log ratio); higher = more active; in vitro selection for triplet polymerase activity
Returns one of yes or no; yes when polymerase ribozyme fitness (log ratio) is >= -2.

Some solved entries appear below for comparison.
GACCAAUCUUCCCACAGAGCUCGAGAACAUCUUCGGAUGCAGAGGAGGCAGGGUUCGGUGGCGCGAUAGCGCCAACGUCCUCAACCUCCAAUGCUUCCCACCACAUGAUGAUGCCUGAAUAGCCUUGGUUUUUUG [G10U U14A C53G A95U G120U] = yes
GACCAAUCUGCCCUCAGAGCUCGAGAACAUCUUCGGAUGCAGAGGAGGCAGUCUUCGGUGCCGCGAUAGCGCCAACGUCCUCAACCUCCAAUGCAUCCCACCACAUGAUGAUGCCUGAAGAACCGUGGUUUUUUG [G52U G61C G122A U125G] = yes
GACCAAUCUGCCCUCAGAUCUCGAGAACAUCUUCGGAUGCAGAGGAGGCAGGCUUCGGUGACGCGAUAGCGCCAACGUCCUGAACCUCCAAUGCAUCCCACCACAUGAUGAUGCCUGAAGAGCAUUGGUUUUUUG [G19U G61A C82G C124A] = no
GACCAAUAUGCCCUCAGAGCUCGAGAACAUCUUCGGAUGCAGAGGAGGCAGGCUUCGGUGGCGUGAUAGCGCCAACGUCCUCAACCUCCAAUGCAUCCCACCACAUGAUGAUGCCUGAAGGGCCUUGGUUUUUUG [C8A C64U A121G] = yes

Evaluate GACCAAUCAGCCCUCAGAGCUCGAGAACAUCUUCGGAUCCAGAGGAGGCAGGCUUCGGUGGCGCGAUAGCGCCAACGUCCUCAACCUCCAAUGCAUCCCACCACAUGAUGAUGCCUGAAGAGCCUUGGUUUUUUG [U9A G39C] : polymerase ribozyme fitness (log ratio) at minimum -2?
yes

Evaluate GACCAAUCUGCCCUCGGAGCUCGAGAACAUCUUCGGAUGCAGAGGAGGCAGACUUAGGUGGCGCGAUAUCGCCAACGUCCUCAACCUCCAAUGCAUCCCACCACAUGAUGAUGCCUGAAGAGCCUUGGUUUUUUG [A16G G52A C56A G69U] : polymerase ribozyme fitness (log ratio) at minimum -2?
yes

Evaluate GACCAAUCUGCCCUCAGAGCUCGAGAACAUCUUCGGAUGCAGAGGAGGCAGGCUUCGGUGGCGCGAUAGCGCCAACGUCGUCAACCACCAAUGCAUCCCACCACAUGAUGAUGCCGGAUGAGCGUUGGUUUUUUG [C80G U87A U116G A119U C124G] : polymerase ribozyme fitness (log ratio) at minimum -2?
no

Evaluate GACCAAUCUGCCCUCAGAGCUCGAGAACAUCUUCGGAUGCAGAGGAGGCAGGCUUCGGUGGCGCGAUAGCGCCAACGUCCUCAAACUCCAAUGCAUCCCACCAUAUGAUGAUGCCUGAAGAGCCUUGGUUUUUUG [C85A C104U] : polymerase ribozyme fitness (log ratio) at minimum -2?
yes

Evaluate GACCAAUCUGCCCUCAGAGCUCGAGAACAUCUUCGGAUGCAGAGGAGGCAGGCUUCGGUGGCGCGAUAGCGGCAACGUCCUCAACCUCCACUGCAUCCCACCACAUGAUGAUGCCUGAAGAGCCUUGGUUUUUUG [C72G A91C] : polymerase ribozyme fitness (log ratio) at minimum -2?
yes

Evaluate GACCAAUCUACCCUCAGAGCUCGAGAACAUCUUCGGAUGCAGAGGAGCCAGGCAUCGGUGGCGCGAUAGCGCCAACGUCCUCAACCUCCAAUGUAUCCCACCACAUGAUUAUGCCUGAAGCGGCUUGGUUUUUUG [G10A G48C U54A C94U G110U A121C C123G] : polymerase ribozyme fitness (log ratio) at minimum -2?
yes
